Biological target: type A botulinum toxin light chain (BoNT/A-LC) (Clostridium botulinum, UniProt P0DPI1)
Sequence (P0DPI1 2-448 limits assumed): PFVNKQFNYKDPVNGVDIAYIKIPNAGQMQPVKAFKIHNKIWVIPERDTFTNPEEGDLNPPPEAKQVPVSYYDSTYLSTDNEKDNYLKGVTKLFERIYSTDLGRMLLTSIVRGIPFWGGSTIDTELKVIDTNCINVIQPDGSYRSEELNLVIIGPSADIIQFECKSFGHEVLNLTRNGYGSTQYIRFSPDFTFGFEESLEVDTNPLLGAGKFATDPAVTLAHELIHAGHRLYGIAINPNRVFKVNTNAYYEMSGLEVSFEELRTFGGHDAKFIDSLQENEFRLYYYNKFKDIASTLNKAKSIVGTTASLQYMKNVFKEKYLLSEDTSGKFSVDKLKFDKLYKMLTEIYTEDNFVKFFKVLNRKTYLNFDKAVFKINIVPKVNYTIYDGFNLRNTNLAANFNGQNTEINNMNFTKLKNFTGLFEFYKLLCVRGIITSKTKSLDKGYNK
Assay: biochemical
Conditions: read-out: Inhibition rate %
MEASUREMENT TYPE: inhibition at 100 µg/mL (%)
The response must be a number in % with no trailing unit.

Record excerpt, results attached:
// query inhibition at 100 µg/mL value for entry O=C(CSc1ncccc1C(=O)[O-])Nc1cc(F)ccc1Cl.[K+] [Example 18]
11.4

// query inhibition at 100 µg/mL value for entry O=C(CSc1ncccc1C(=O)[O-])Nc1ccccc1OC(F)(F)F.[K+] [Example 24, potassium]
8.9

// query inhibition at 100 µg/mL value for entry O=C(CSc1ncccc1C(=O)[O-])Nc1ccc(Br)cc1.[K+] [Example 12, potassium]
9.4

// query inhibition at 100 µg/mL value for entry COc1ccc(F)cc1NC(=O)CSc1ncccc1C(=O)O [Example 13, potassium]
20.3

// query inhibition at 100 µg/mL value for entry O=C(CSc1ncccc1C(=O)[O-])Nc1cc(Cl)ccc1OCc1ccccc1.[K+] [Example 23, sodium]
78

// query inhibition at 100 µg/mL value for entry COc1ccc(Cl)cc1NC(=O)CSc1cc(C(=O)[O-])ccn1.[K+] [Example 15, potassium]
3

// query inhibition at 100 µg/mL value for entry O=C(CSc1ncccc1C(=O)[O-])Nc1ccccc1Cl.[K+] [Example 8, potassium]
25.1

// query inhibition at 100 µg/mL value for entry COc1ccc(Cl)cc1NC(=O)CSc1ncccc1C(=O)O [Example 2]
12.1

// query inhibition at 100 µg/mL value for entry COc1ccc(Cl)cc1NCC(=O)Sc1ncccc1C(=O)[O-].[Na+] [Example 1, sodium]
8.4

// query inhibition at 100 µg/mL value for entry O=C(CSc1ncccc1C(=O)[O-])Nc1cc(OC(F)(F)F)ccc1Br.[K+] [Example 26, potassium]
27.4

---
// query inhibition at 100 µg/mL value for entry O=C(CSc1ncccc1C(=O)[O-])Nc1cccc(Cl)c1.[K+] [Example 20, potassium]
6.8

// query inhibition at 100 µg/mL value for entry O=C(CSc1ncccc1C(=O)O)Nc1cc(F)ccc1F [Example 22, potassium]
3.2

// query inhibition at 100 µg/mL value for entry COc1cc(Cl)cc(NCC(=O)Sc2ncccc2C(=O)[O-])c1.[Na+] [Example 4, sodium]
45.4

====

Molecular target: type B botulinum toxin light chain (BoNT/B-LC) (Clostridium botulinum)
Sequence (P10844 2-441 limits assumed): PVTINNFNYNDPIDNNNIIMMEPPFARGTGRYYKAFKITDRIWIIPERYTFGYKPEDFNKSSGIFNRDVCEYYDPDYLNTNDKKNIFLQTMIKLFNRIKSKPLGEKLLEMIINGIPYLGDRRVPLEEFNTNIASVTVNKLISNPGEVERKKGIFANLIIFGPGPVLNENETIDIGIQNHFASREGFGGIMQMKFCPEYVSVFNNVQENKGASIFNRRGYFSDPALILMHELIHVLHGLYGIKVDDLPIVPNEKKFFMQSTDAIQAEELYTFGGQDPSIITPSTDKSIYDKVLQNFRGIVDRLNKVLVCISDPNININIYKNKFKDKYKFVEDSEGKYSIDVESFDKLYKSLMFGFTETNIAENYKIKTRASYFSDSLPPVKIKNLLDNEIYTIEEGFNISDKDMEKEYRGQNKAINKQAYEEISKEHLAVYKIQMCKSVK
Assay: biochemical
Conditions: read-out: Inhibition rate %
Classify by inhibition at 100 µg/mL. Ranges: LOW = under 20%, MID = from 20% up to 30%, HIGH = 30% and over

Below are worked cases with known answers.
Category of COc1cc(Cl)cc(NCC(=O)Sc2ncccc2C(=O)[O-])c1.[Na+] [Example 4, sodium] :
HIGH

Category of "CCCOc1ccc(Cl)cc1NC(=O)CSc1ncccc1C(=O)O" :
MID

Category of "O=C(CSc1ncccc1C(=O)[O-])Nc1cccc(Cl)c1.[K+]" :
HIGH

Category of O=C(CSc1ncccc1C(=O)[O-])Nc1cc(Cl)ccc1OCc1ccccc1.[K+] [Example 23, sodium] :
HIGH

Category of "COc1ccc(F)cc1NC(=O)CSc1ncccc1C(=O)O" :
MID

Category of "O=C(CSc1ncccc1C(=O)O)Nc1cc(F)ccc1F" :
LOW

Category of "CCOc1ccc(Cl)cc1NC(=O)CSc1ncccc1C(=O)O" :
LOW

Category of "COc1ccc(Cl)c(NC(=O)CSc2ncccc2C(=O)[O-])c1.[K+]" :
MID

Category of "COc1ccc(Cl)cc1NC(=O)CSc1cc(C(=O)[O-])ccn1.[K+]" :
LOW

Category of "O=C(CSc1ncccc1C(=O)O)Nc1ccccc1" :
LOW

---
Category of "O=C(CSc1ncccc1C(=O)O)Nc1cccc(OC(F)(F)F)c1" :
LOW

Category of "O=C(CSc1ncccc1C(=O)[O-])Nc1ccc(OC(F)(F)F)cc1.[K+]" :
MID

====

Target: type B botulinum toxin (BoNT/B) (Clostridium botulinum, UniProt P10844)
Sequence (P10844 442-1291 limits assumed, one chain of several): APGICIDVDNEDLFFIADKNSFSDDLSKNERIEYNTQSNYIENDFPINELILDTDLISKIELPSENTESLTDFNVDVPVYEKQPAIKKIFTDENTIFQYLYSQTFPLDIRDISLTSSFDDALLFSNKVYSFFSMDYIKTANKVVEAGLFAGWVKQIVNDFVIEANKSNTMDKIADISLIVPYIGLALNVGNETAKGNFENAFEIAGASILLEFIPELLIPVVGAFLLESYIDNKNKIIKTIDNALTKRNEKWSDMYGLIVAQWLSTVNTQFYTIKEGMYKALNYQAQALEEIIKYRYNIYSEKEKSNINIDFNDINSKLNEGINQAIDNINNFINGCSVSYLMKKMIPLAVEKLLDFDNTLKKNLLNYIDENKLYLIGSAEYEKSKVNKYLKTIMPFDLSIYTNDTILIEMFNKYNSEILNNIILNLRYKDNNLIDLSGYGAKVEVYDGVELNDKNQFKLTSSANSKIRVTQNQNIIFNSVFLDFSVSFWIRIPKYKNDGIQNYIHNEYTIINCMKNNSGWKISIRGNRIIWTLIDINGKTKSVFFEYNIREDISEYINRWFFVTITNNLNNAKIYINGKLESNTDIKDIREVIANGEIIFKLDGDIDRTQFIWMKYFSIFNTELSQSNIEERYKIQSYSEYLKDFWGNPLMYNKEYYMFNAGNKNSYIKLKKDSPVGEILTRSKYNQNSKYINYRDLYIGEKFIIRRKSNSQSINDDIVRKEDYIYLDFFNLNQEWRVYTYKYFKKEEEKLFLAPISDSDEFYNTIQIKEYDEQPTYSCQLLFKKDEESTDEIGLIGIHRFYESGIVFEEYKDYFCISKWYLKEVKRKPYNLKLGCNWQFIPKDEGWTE
Design: species or system Balb/c mice
Settings: mouse, in vivo, ip
MEASUREMENT TYPE: % survival (%)
The response must be a number in % with no trailing unit.

// query % survival value for entry "COc1ccc(Cl)cc1NCC(=O)Sc1ncccc1C(=O)[O-].[Na+]"
40

// query % survival value for entry "O=C(CSc1ncccc1C(=O)[O-])Nc1cccc(Cl)c1.[K+]"
0

// query % survival value for entry "O=C(CSc1ncccc1C(=O)[O-])Nc1ccccc1Cl.[K+]"
0

---
// query % survival value for entry "O=C(CSc1ncccc1C(=O)[O-])Nc1cc(Br)ccc1Br.[K+]"
20

// query % survival value for entry "O=C(CSc1ncccc1C(=O)[O-])Nc1ccc(Br)cc1.[K+]"
80

// query % survival value for entry "O=C(CSc1ncccc1C(=O)[O-])Nc1ccccc1OC(F)(F)F.[K+]"
80

// query % survival value for entry "O=C(CSc1ncccc1C(=O)[O-])Nc1ccc(OC(F)(F)F)cc1.[K+]"
40

// query % survival value for entry "O=C(CSc1ncccc1C(=O)[O-])Nc1cc(OC(F)(F)F)ccc1Br.[K+]"
20

// query % survival value for entry "O=C(CSc1ncccc1C(=O)[O-])Nc1cc(Cl)ccc1OCc1ccccc1.[K+]"
80

// query % survival value for entry "O=C(CSc1ncccc1C(=O)[O-])Nc1cc(F)ccc1Cl.[K+]"
40

// query % survival value for entry "COc1ccc(Cl)cc1NC(=O)CSc1ncccc1C(=O)[O-].[K+]"
60

// query % survival value for entry "COc1cc(Cl)cc(NCC(=O)Sc2ncccc2C(=O)[O-])c1.[Na+]"
100

====

Molecular target: tetanus toxin light chain (TeNt-LC) (Clostridium tetani)
Sequence (P04958 2-457 limits assumed): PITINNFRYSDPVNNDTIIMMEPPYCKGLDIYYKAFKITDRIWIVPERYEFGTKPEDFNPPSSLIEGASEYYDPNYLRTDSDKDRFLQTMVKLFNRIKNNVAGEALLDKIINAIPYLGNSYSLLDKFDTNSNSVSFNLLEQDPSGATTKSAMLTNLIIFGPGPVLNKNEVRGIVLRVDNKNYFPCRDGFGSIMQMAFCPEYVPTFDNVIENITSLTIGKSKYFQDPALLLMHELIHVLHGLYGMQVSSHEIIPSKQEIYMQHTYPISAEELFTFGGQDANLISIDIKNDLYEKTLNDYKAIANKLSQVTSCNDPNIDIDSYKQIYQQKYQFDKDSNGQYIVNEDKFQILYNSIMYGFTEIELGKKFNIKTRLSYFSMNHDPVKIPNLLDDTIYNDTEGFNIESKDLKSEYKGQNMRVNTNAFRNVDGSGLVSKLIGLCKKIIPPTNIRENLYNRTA
Experiment: biochemical
Details: read-out: Inhibition rate %
MEASUREMENT TYPE: inhibition at 200 µg/mL (%)
The response must be a number in % with no trailing unit.

Record excerpt, results attached:
// query inhibition at 200 µg/mL value for entry "O=C(CSc1ncccc1C(=O)[O-])Nc1cc(OC(F)(F)F)ccc1Br.[K+]"
17.1

// query inhibition at 200 µg/mL value for entry "COc1ccc(F)cc1NC(=O)CSc1ncccc1C(=O)O"
14.6

// query inhibition at 200 µg/mL value for entry COc1cc(Cl)cc(NCC(=O)Sc2ncccc2C(=O)[O-])c1.[Na+] [Example 4, sodium]
34.5

// query inhibition at 200 µg/mL value for entry "O=C(CSc1ncccc1C(=O)O)Nc1ccccc1"
6.4

// query inhibition at 200 µg/mL value for entry "O=C(CSc1ncccc1C(=O)[O-])Nc1ccccc1OC(F)(F)F.[K+]"
13.2

---
// query inhibition at 200 µg/mL value for entry "O=C(CSc1ncccc1C(=O)O)Nc1cccc(OC(F)(F)F)c1"
5.7

// query inhibition at 200 µg/mL value for entry "CCOc1ccc(Cl)cc1NC(=O)CSc1ncccc1C(=O)O"
4.7

// query inhibition at 200 µg/mL value for entry "O=C(CSc1ncccc1C(=O)O)Nc1ccc(F)cc1"
2.7

====

Molecular target: BoNT/F-LC (Clostridium botulinum, UniProt A7GBG3)
Sequence (A7GBG3 1-436 limits assumed): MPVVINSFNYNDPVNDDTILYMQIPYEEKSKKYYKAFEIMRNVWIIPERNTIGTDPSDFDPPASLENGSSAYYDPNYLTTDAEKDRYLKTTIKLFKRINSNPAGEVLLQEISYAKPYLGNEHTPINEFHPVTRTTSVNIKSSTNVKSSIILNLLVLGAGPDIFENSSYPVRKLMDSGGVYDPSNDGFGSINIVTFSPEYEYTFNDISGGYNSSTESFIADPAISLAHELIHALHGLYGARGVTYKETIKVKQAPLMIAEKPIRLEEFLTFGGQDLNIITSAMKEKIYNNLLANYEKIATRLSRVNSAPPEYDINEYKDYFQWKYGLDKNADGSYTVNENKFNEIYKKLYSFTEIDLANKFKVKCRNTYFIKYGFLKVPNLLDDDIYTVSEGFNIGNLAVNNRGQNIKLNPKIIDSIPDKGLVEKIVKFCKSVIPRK
Test: biochemical
Conditions: read-out: Inhibition rate %
// inhibition at 100 µg/mL lookup, one value per entry
The response must be a number in % with no trailing unit.

Record excerpt, results attached:
// query inhibition at 100 µg/mL value for entry "COc1ccc(OC)c(NC(=O)CSc2ncccc2C(=O)O)c1"
9.8

// query inhibition at 100 µg/mL value for entry "COc1ccc(Cl)c(NC(=O)CSc2ncccc2C(=O)[O-])c1.[K+]"
9.8

---
// query inhibition at 100 µg/mL value for entry "COc1ccc(Cl)cc1NC(=O)CSc1cc(C(=O)[O-])ccn1.[K+]"
7.2

// query inhibition at 100 µg/mL value for entry COc1cc(Cl)cc(NCC(=O)Sc2ncccc2C(=O)[O-])c1.[Na+] [Example 4, sodium]
48.6

// query inhibition at 100 µg/mL value for entry "O=C(CSc1ncccc1C(=O)[O-])Nc1ccc(OC(F)(F)F)cc1.[K+]"
16.5

// query inhibition at 100 µg/mL value for entry COc1ccc(Cl)cc1NCC(=O)Sc1ncccc1C(=O)[O-].[Na+] [Example 1, sodium]
12.2

// query inhibition at 100 µg/mL value for entry "COc1ccc(F)cc1NC(=O)CSc1ncccc1C(=O)O"
16.4

// query inhibition at 100 µg/mL value for entry "CCCOc1ccc(Cl)cc1NC(=O)CSc1ncccc1C(=O)O"
11.3

// query inhibition at 100 µg/mL value for entry "O=C(CSc1ncccc1C(=O)[O-])Nc1cc(Br)ccc1Br.[K+]"
12.1

====

// % survival lookup, one value per entry
Biological target: type A botulinum toxin (BoNT/A) (Clostridium botulinum, UniProt P0DPI1)
Sequence (P0DPI1 449-1296 limits assumed, one chain of several): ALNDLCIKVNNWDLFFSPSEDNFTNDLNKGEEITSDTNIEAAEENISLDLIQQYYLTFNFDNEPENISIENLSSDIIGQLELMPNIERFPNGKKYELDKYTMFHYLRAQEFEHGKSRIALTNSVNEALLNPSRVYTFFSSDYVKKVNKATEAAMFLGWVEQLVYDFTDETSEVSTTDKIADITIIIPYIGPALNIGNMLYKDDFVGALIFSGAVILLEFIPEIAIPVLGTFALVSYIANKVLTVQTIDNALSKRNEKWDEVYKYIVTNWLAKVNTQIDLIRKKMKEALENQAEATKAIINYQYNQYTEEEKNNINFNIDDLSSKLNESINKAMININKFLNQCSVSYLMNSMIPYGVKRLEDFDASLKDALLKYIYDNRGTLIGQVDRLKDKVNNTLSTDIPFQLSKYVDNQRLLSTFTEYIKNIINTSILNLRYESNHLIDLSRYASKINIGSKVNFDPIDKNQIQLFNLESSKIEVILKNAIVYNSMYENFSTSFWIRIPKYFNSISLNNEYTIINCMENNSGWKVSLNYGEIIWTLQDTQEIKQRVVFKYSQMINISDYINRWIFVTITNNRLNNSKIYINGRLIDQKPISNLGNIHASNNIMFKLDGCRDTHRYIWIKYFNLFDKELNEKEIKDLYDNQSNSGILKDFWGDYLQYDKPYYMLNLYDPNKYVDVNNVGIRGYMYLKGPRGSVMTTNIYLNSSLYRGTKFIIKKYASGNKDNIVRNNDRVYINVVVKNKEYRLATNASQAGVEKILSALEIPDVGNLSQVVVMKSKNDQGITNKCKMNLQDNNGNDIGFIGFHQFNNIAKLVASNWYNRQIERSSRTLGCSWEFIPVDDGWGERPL
Parameters: species or system Balb/c mice
Conditions: mouse, in vivo, ip
The response must be a number in % with no trailing unit.

Record excerpt, results attached:
// query % survival value for entry COc1ccc(Cl)cc1NC(=O)CSc1cc(C(=O)[O-])ccn1.[K+] [Example 15]
80

// query % survival value for entry COc1ccc(Cl)c(NC(=O)CSc2ncccc2C(=O)[O-])c1.[K+] [Example 14]
20

// query % survival value for entry O=C(CSc1ncccc1C(=O)[O-])Nc1cc(F)ccc1Cl.[K+] [Example 18]
0

// query % survival value for entry O=C(CSc1ncccc1C(=O)[O-])Nc1ccccc1Cl.[K+] [Example 8]
80

Now turn to the next molecule.
// query % survival value for entry O=C(CSc1ncccc1C(=O)[O-])Nc1cc(Cl)ccc1OCc1ccccc1.[K+] [Example 23]
100
